FYI, the data here is from the DeepSol protein solubility set.

assay: soluble on expression in E. coli; label from the status in PepcDB or PDB records

>  <Primary sequence>
MSKIEIFEAAGCCATSSVVVSDEAVKWNASAEWAKKHGVNIQRYSLAKNPQQFLNTPVIRAFLNTSGMESLPATLLDGQLVMAGKLPSREDIARWAG

>  <soluble on expression in E. coli>
soluble

$$$$
>  <Primary sequence>
MAACRALKAVLVDLSGTLHIEDAAVPGAQEALKRLRGASVIIRFVTNTTKESKQDLLERLRKLEFDISEDEIFTSLTAARSLLERKQVRPMLLVDDRALPDFKGIQTSDPNAVVMGLAPEHFHYQILNQAFRLLLDGAPLIAIHKARYYKRKDGLALGPGPFVTALEYATDTKATVVGKPEKTFFLEALRGTGCEPEEAVMIGDDCRDDVGGAQDVGMLGILVKTGKYRASDEEKINPPPYLTCESFPHAVDHILQHLLAENLYFQ

>  <soluble on expression in E. coli>
soluble

$$$$
